System: Mycobacterium tuberculosis Erdman (autoluminescent)
assay-protocol: AUC25, normalised area under dose response up to IC25 (three-drug combination) (fraction (0-1)); higher = more potent at low dose
condition-summary: in vitro model: valerate; time point: constant (~7 days, model-specific)
AUC25 listing for selected compounds.
measured-quantity: AUC25

>>> result("NNC(=O)c1ccncc1 [isoniazid] + O=[N+]([O-])c1cn2c(n1)OC[C@@H](OCc1ccc(OC(F)(F)F)cc1)C2 [pretomanid] + CO[C@H]1/C=C/O[C@@]2(C)Oc3c(C)c(O)c4c(O)c(c(/C=N/N5CCN(C6CCCC6)CC5)c(O)c4c3C2=O)NC(=O)/C(C)=C\\C=C\\[C@H](C)[C@H](O)[C@@H](C)[C@@H](O)[C@@H](C)[C@H](OC(C)=O)[C@@H]1C [rifapentine]")
0.102
>>> result("CC(C)/N=c1\\cc2n(-c3ccc(Cl)cc3)c3ccccc3nc-2cc1Nc1ccc(Cl)cc1 [clofazimine] + CC[C@@H](CO)NCCN[C@@H](CC)CO [ethambutol] + CO[C@H]1/C=C/O[C@@]2(C)Oc3c(C)c(O)c4c(O)c(c(/C=N/N5CCN(C)CC5)c(O)c4c3C2=O)NC(=O)/C(C)=C\\C=C\\[C@H](C)[C@H](O)[C@@H](C)[C@@H](O)[C@@H](C)[C@H](OC(C)=O)[C@@H]1C [rifampicin]")
0.0993
>>> result("COc1nc2ccc(Br)cc2cc1[C@@H](c1ccccc1)[C@@](O)(CCN(C)C)c1cccc2ccccc12 [bedaquiline] + CC(C)/N=c1\\cc2n(-c3ccc(Cl)cc3)c3ccccc3nc-2cc1Nc1ccc(Cl)cc1 [clofazimine] + NC(=O)c1cnccn1 [pyrazinamide]")
0.103

----------
System: Mycobacterium tuberculosis Erdman (autoluminescent)
assay-protocol: total FIC90 (Loewe) at 90% inhibition, three-drug combination (log2); higher = more antagonistic
condition-summary: in vitro model: standard 7H9 glycerol; time point: constant = terminal
measured-quantity: total FIC90

>>> quantitative_readout("CC(C)/N=c1\\cc2n(-c3ccc(Cl)cc3)c3ccccc3nc-2cc1Nc1ccc(Cl)cc1 [clofazimine] + COc1c(N2C[C@@H]3CCCN[C@@H]3C2)c(F)cc2c(=O)c(C(=O)O)cn(C3CC3)c12 [moxifloxacin] + CO[C@H]1/C=C/O[C@@]2(C)Oc3c(C)c(O)c4c(O)c(c(/C=N/N5CCN(C6CCCC6)CC5)c(O)c4c3C2=O)NC(=O)/C(C)=C\\C=C\\[C@H](C)[C@H](O)[C@@H](C)[C@@H](O)[C@@H](C)[C@H](OC(C)=O)[C@@H]1C [rifapentine]")
0.69
>>> quantitative_readout("CC(C)/N=c1\\cc2n(-c3ccc(Cl)cc3)c3ccccc3nc-2cc1Nc1ccc(Cl)cc1 [clofazimine] + O=[N+]([O-])c1cn2c(n1)OC[C@@H](OCc1ccc(OC(F)(F)F)cc1)C2 [pretomanid] + CO[C@H]1/C=C/O[C@@]2(C)Oc3c(C)c(O)c4c(O)c(c(/C=N/N5CCN(C)CC5)c(O)c4c3C2=O)NC(=O)/C(C)=C\\C=C\\[C@H](C)[C@H](O)[C@@H](C)[C@@H](O)[C@@H](C)[C@H](OC(C)=O)[C@@H]1C [rifampicin]")
-0.0486
>>> quantitative_readout("NNC(=O)c1ccncc1 [isoniazid] + O=[N+]([O-])c1cn2c(n1)OC[C@@H](OCc1ccc(OC(F)(F)F)cc1)C2 [pretomanid] + CO[C@H]1/C=C/O[C@@]2(C)Oc3c(C)c(O)c4c(O)c(c(/C=N/N5CCN(C)CC5)c(O)c4c3C2=O)NC(=O)/C(C)=C\\C=C\\[C@H](C)[C@H](O)[C@@H](C)[C@@H](O)[C@@H](C)[C@H](OC(C)=O)[C@@H]1C [rifampicin]")
3.36
>>> quantitative_readout("COc1c(N2C[C@@H]3CCCN[C@@H]3C2)c(F)cc2c(=O)c(C(=O)O)cn(C3CC3)c12 [moxifloxacin] + O=[N+]([O-])c1cn2c(n1)OC[C@@H](OCc1ccc(OC(F)(F)F)cc1)C2 [pretomanid] + CO[C@H]1/C=C/O[C@@]2(C)Oc3c(C)c(O)c4c(O)c(c(/C=N/N5CCN(C6CCCC6)CC5)c(O)c4c3C2=O)NC(=O)/C(C)=C\\C=C\\[C@H](C)[C@H](O)[C@@H](C)[C@@H](O)[C@@H](C)[C@H](OC(C)=O)[C@@H]1C [rifapentine]")
0.207
>>> quantitative_readout("CC(=O)NC[C@H]1CN(c2ccc(N3CCOCC3)c(F)c2)C(=O)O1 [linezolid] + O=[N+]([O-])c1cn2c(n1)OC[C@@H](OCc1ccc(OC(F)(F)F)cc1)C2 [pretomanid] + CO[C@H]1/C=C/O[C@@]2(C)Oc3c(C)c(O)c4c(O)c(c(/C=N/N5CCN(C6CCCC6)CC5)c(O)c4c3C2=O)NC(=O)/C(C)=C\\C=C\\[C@H](C)[C@H](O)[C@@H](C)[C@@H](O)[C@@H](C)[C@H](OC(C)=O)[C@@H]1C [rifapentine]")
0.754

----------
Tested on: Mycobacterium tuberculosis Erdman (autoluminescent)
assay-protocol: AUC25, normalised area under dose response up to IC25 (fraction (0-1)); higher = more potent at low dose
condition-summary: in vitro model: acidic pH 5.7; time point: constant (~7 days, model-specific)
Below: a set of entries, each annotated with reported AUC25.
measured-quantity: AUC25

>>> quantitative_readout("O=[N+]([O-])c1cn2c(n1)OC[C@@H](OCc1ccc(OC(F)(F)F)cc1)C2 [pretomanid] + CO[C@H]1/C=C/O[C@@]2(C)Oc3c(C)c(O)c4c(O)c(c(/C=N/N5CCN(C6CCCC6)CC5)c(O)c4c3C2=O)NC(=O)/C(C)=C\\C=C\\[C@H](C)[C@H](O)[C@@H](C)[C@@H](O)[C@@H](C)[C@H](OC(C)=O)[C@@H]1C")
0.101
>>> quantitative_readout("CC(C)/N=c1\\cc2n(-c3ccc(Cl)cc3)c3ccccc3nc-2cc1Nc1ccc(Cl)cc1 [clofazimine] + NC(=O)c1cnccn1 [pyrazinamide]")
0.0987
>>> quantitative_readout("CC[C@@H](CO)NCCN[C@@H](CC)CO [ethambutol] + CC(=O)NC[C@H]1CN(c2ccc(N3CCOCC3)c(F)c2)C(=O)O1 [linezolid]")
0.0997
>>> quantitative_readout("NNC(=O)c1ccncc1 [isoniazid] + CC(=O)NC[C@H]1CN(c2ccc(N3CCOCC3)c(F)c2)C(=O)O1 [linezolid]")
0.0979

----------
System: Mycobacterium tuberculosis Erdman (autoluminescent)
assay-protocol: GRinf, maximum normalised growth rate inhibition (three-drug combination) (unitless (-1 to 1)); higher = less effect (negative = killing)
condition-summary: in vitro model: cholesterol 0.05 mM; time point: constant (~7 days, model-specific)
Parameter: GRinf. Scope: all listed entries.
measured-quantity: GRinf

>>> quantitative_readout("CC[C@@H](CO)NCCN[C@@H](CC)CO [ethambutol] + COc1c(N2C[C@@H]3CCCN[C@@H]3C2)c(F)cc2c(=O)c(C(=O)O)cn(C3CC3)c12 [moxifloxacin] + CO[C@H]1/C=C/O[C@@]2(C)Oc3c(C)c(O)c4c(O)c(c(/C=N/N5CCN(C)CC5)c(O)c4c3C2=O)NC(=O)/C(C)=C\\C=C\\[C@H](C)[C@H](O)[C@@H](C)[C@@H](O)[C@@H](C)[C@H](OC(C)=O)[C@@H]1C [rifampicin]")
0.0718
>>> quantitative_readout("CC(C)/N=c1\\cc2n(-c3ccc(Cl)cc3)c3ccccc3nc-2cc1Nc1ccc(Cl)cc1 [clofazimine] + O=[N+]([O-])c1cn2c(n1)OC[C@@H](OCc1ccc(OC(F)(F)F)cc1)C2 [pretomanid] + CO[C@H]1/C=C/O[C@@]2(C)Oc3c(C)c(O)c4c(O)c(c(/C=N/N5CCN(C)CC5)c(O)c4c3C2=O)NC(=O)/C(C)=C\\C=C\\[C@H](C)[C@H](O)[C@@H](C)[C@@H](O)[C@@H](C)[C@H](OC(C)=O)[C@@H]1C [rifampicin]")
-0.174
>>> quantitative_readout("CC[C@@H](CO)NCCN[C@@H](CC)CO [ethambutol] + NNC(=O)c1ccncc1 [isoniazid] + CO[C@H]1/C=C/O[C@@]2(C)Oc3c(C)c(O)c4c(O)c(c(/C=N/N5CCN(C6CCCC6)CC5)c(O)c4c3C2=O)NC(=O)/C(C)=C\\C=C\\[C@H](C)[C@H](O)[C@@H](C)[C@@H](O)[C@@H](C)[C@H](OC(C)=O)[C@@H]1C [rifapentine]")
0.0218
>>> quantitative_readout("NNC(=O)c1ccncc1 [isoniazid] + CC(=O)NC[C@H]1CN(c2ccc(N3CCOCC3)c(F)c2)C(=O)O1 [linezolid] + CO[C@H]1/C=C/O[C@@]2(C)Oc3c(C)c(O)c4c(O)c(c(/C=N/N5CCN(C)CC5)c(O)c4c3C2=O)NC(=O)/C(C)=C\\C=C\\[C@H](C)[C@H](O)[C@@H](C)[C@@H](O)[C@@H](C)[C@H](OC(C)=O)[C@@H]1C [rifampicin]")
-0.14
>>> quantitative_readout("CC[C@@H](CO)NCCN[C@@H](CC)CO [ethambutol] + CC(=O)NC[C@H]1CN(c2ccc(N3CCOCC3)c(F)c2)C(=O)O1 [linezolid] + CO[C@H]1/C=C/O[C@@]2(C)Oc3c(C)c(O)c4c(O)c(c(/C=N/N5CCN(C6CCCC6)CC5)c(O)c4c3C2=O)NC(=O)/C(C)=C\\C=C\\[C@H](C)[C@H](O)[C@@H](C)[C@@H](O)[C@@H](C)[C@H](OC(C)=O)[C@@H]1C [rifapentine]")
-0.109
>>> quantitative_readout("CC(C)/N=c1\\cc2n(-c3ccc(Cl)cc3)c3ccccc3nc-2cc1Nc1ccc(Cl)cc1 [clofazimine] + CC[C@@H](CO)NCCN[C@@H](CC)CO [ethambutol] + COc1c(N2C[C@@H]3CCCN[C@@H]3C2)c(F)cc2c(=O)c(C(=O)O)cn(C3CC3)c12 [moxifloxacin]")
-0.615
